targetSystem: Na⁺-abhängiges Gallensäuretransportsystem (Bürstensaummembranvesikel des Ileums) (Oryctolagus cuniculus)
Construct: Präparation von Bürstensaummembranvesikeln aus dem Ileum von Kaninchen; from tissue; host or cells: Brush border membrane vesicles from the terminal ileum of male New Zealand rabbits (Mg2+ precipitation method)
Sequence (Q28727 whole entry): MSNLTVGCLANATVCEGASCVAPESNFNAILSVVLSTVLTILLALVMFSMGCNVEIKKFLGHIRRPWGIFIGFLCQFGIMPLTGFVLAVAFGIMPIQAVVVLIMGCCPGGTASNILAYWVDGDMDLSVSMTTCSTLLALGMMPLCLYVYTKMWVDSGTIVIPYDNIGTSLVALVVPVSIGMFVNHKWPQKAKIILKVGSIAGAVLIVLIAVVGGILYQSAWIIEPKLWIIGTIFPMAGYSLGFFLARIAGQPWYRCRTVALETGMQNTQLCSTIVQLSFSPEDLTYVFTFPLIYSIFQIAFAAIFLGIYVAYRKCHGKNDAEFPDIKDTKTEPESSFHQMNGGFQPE
testProtocol: Inhibition of [³H]-taurocholate uptake into brush border membrane vesicles of rabbit ileum (membrane filtration technique)
Assay type: biochemical, Kaninchen
setupConditions: quotient of IC50Na of reference Taurochenodesoxycholat (TCDC) and IC50Na of test substance; Na⁺-dependent transport part (difference Na-T-P minus K-T-P), 50 µM Taurocholat
testReadout: IC50Na-TCDC[µmol] / IC50Na-Substanz[µmol]

smilesInput	valueReported
C[C@H](CCC(=O)N[C@H]1C[C@@H]2C[C@H](O)CC[C@]2(C)[C@H]2C[C@H](O)[C@]3(C)[C@@H]([C@H](C)CCC(=O)O)CC[C@H]3[C@H]12)[C@H]1CC[C@H]2[C@@H]3[C@H](O)C[C@@H]4C[C@H](O)CC[C@]4(C)[C@H]3C[C@H](O)[C@]12C	0,29
C[C@H](CCC(=O)N[C@H]1C[C@@H]2C[C@H](O)CC[C@]2(C)[C@H]2C[C@H](O)[C@]3(C)[C@@H]([C@H](C)CCC(=O)O)CC[C@H]3[C@H]12)[C@H]1CC[C@H]2[C@@H]3[C@@H](O)C[C@@H]4C[C@H](O)CC[C@]4(C)[C@H]3CC[C@]12C	0,43

Exercise: For C[C@H](CCC(=O)N[C@H]1C[C@@H]2C[C@H](O)CC[C@]2(C)[C@H]2C[C@H](O)[C@]3(C)[C@@H]([C@H](C)CCC(=O)O)CC[C@H]3[C@H]12)[C@H]1CC[C@H]2[C@@H]3CC[C@@H]4C[C@H](O)CC[C@]4(C)[C@H]3CC[C@]12C , what is its reported IC50Na-TCDC[µmol] / IC50Na-Substanz[µmol]?
Key: 0,17

Source listed as patent EP0624593A2.
